target: Human GlyT1c (Homo sapiens, UniProt P48067); test: Glycine uptake in recombinant hGlyT1 expressing cells; details: hGlyT1c_5_CHO cells; [3H]-glycine uptake, 60-120 min
Counter-ions that a name gives are not always drawn.
Please respond with reported IC50 for every item in the list.

In the examples that follow, each entry is paired with its recorded IC50.
COc1cccc2c(NC(c3ccncc3)c3ccc(Cl)cc3)cc(C)nc12 (stereo not drawn) = ≤ 1000 nM
CCNc1cccc2c(NCc3ccc(Cl)c(Cl)c3)cc(C)nc12 = ≤ 1000 nM

Please report IC50 for every entry that follows.
1. COc1cccc2c(NC(c3ccc(Cl)cc3)c3nccn3C)cc(C)nc12 (stereo not drawn)
2. CCCOc1cccc2c(NCc3ccc(C(F)(F)F)c(Cl)c3)cc(C)nc12 [Example 45, hydrochloride]
3. Cc1cc(NCc2ccc(Cl)c(Cl)c2)c2cccc(F)c2n1
4. CN(C)c1cc(NCc2ccccc2)c2ccccc2n1
5. Cc1cc(NCc2ccc(Cl)c(Cl)c2)c2cccc(OCCNS(=O)(=O)CC(C)C)c2n1

Result:
1. ≤ 100000 nM
2. ≤ 10000 nM
3. ≤ 1000 nM
4. ≤ 100000 nM
5. ≤ 100 nM

Report IC50 for each item below.
1. Cc1cc(N[C@@H](c2ccccc2)[C@@H]2CCCCN2)c2ccccc2n1
2. Cc1cc(NCc2ccc(Cl)c(Cl)c2)c2cccc(O)c2n1

Result:
1: ≤ 1000 nM; 2: ≤ 1000 nM

---

molecular target: human GlyT1c transporter (Homo sapiens, UniProt P48067); experiment: [3H]-(R)-NPTS radioligand binding assay using recombinant hGlyT1 expressing cell membranes; settings: 0.5 nM [3H]-(R)-NPTS, apparent Ki via Cheng-Prusoff, read-out: [3H]-(R)-NPTS bindung Ki
pKi: −log10 of the molar value. Where a name gives a salt, the structure may show the parent alone.
For each record, write down the corresponding pKi.

These solved cases illustrate the format of a correct answer.
CSc1cccc2c(NCc3ccc(Cl)c(Cl)c3)cc(C)nc12 = ≥ 7.00
Cc1cc(NCc2ccc(Cl)c(Cl)c2)c2cccc(OCCN(C)C)c2n1 [Example 50, dihydrochloride] = ≥ 7.00
Cc1cc(NCc2ccc(Cl)c(Cl)c2)c2cccc(OCCNS(=O)(=O)c3ccc4ccccc4c3)c2n1 = ≥ 7.00
Cc1cc(NCc2ccc(Cl)c(Cl)c2)c2cccc(OC(C)C)c2n1 [Example 42, hydrochloride] = ≥ 7.00

State recorded pKi for all listed molecules.
1. COc1cccc2c(NC(CN3CCOCC3)c3ccc(Cl)cc3)cc(C)nc12 (stereo not shown)
2. CC(=O)NCCOc1cccc2c(NCc3ccc(Cl)c(Cl)c3)cc(C)nc12

Result:
1. ≥ 5.00
2. ≥ 7.00

Query: Form field - read-out: pKi; system: human GlyT1c transporter (Homo sapiens, UniProt P48067); submitted item: Cc1cc(NCc2ccc(Cl)c(Cl)c2)c2cccc(OCCNC(=O)c3ccccc3)c2n1
Result: ≥ 8.00

---

Exercise: for every item that follows, state its recorded Ki.
Target: human GlyT1c transporter (Homo sapiens)
Test: [3H]-(R)-NPTS radioligand binding assay using recombinant hGlyT1 expressing cell membranes
Details: 0.5 nM [3H]-(R)-NPTS, apparent Ki via Cheng-Prusoff, read-out: [3H]-(R)-NPTS bindung Ki
Description: 2. [^3H]-(R)-NPTS Radioligand Binding Assays using Recombinant hGlyT1 Expressing Cell Membranes: Radioligand binding to human GlyT1c transporter-expressing membranes was measured in duplicate in a total volume of 200 μl in 96-well plates. […] Non-specific binding was determined in the presence of 10 μM Org24598 (or its racemate Org24461) for [^3H]-(R)-NPTS. […] The radioactivity was determined by liquid scintillation spectrometry in a MicroBeta (PerkinElmer) plate counter. […]
Structures can show the parent of a compound that is named as a salt.

Cc1cc(NCc2ccc(Cl)c(Cl)c2)c2ccccc2n1 = ≤ 100 nM
Cc1cc(NCc2ccc(Cl)c(Cl)c2)c2cccc(Oc3ccccn3)c2n1 = ≤ 1000 nM
Cc1cc(NCc2ccc(Cl)cc2Cl)c2cccc(OCCN)c2n1 = ≤ 100 nM
Cc1cc(NCc2ccc(Cl)c(Cl)c2)c2cccc(Oc3ccccc3)c2n1 = ≤ 1000 nM
Cc1cc(NCc2ccc(Cl)c(Cl)c2)c2cccc(N3CCOCC3)c2n1 [Example 6, hydrobromide] = ≤ 100 nM

Parameter requested: Ki. Apply to each item below.
1. COc1cccc2c(NC(CNCc3ccccc3)c3ccccc3)cc(C)nc12 (stereo not drawn)
2. COc1cccc2c(NC(CNC(C)C)c3ccccc3)cc(C)nc12 (stereo not drawn)
3. Cc1cc(NCc2ccc(Cl)c(Cl)c2)c2cccc(S(=O)(=O)N(C)C)c2n1
4. COc1cccc2c(N[C@H](C)c3ccc(Cl)cc3)cc(C)nc12
5. CSc1cccc2c(NCc3ccc(Cl)cc3)cc(C)nc12
6. Cc1cc(NCc2ccc(Cl)c(Cl)c2)c2cccc(N(C)C)c2n1 [Example 16, hydrochloride]
7. CNc1cccc2c(NCc3ccc(Cl)c(Cl)c3)cc(C)nc12
8. COc1cccc2c(NC(CN3CCCCC3)c3ccc(Cl)cc3)cc(C)nc12 (stereo not drawn)

Result:
≤ 1000 nM
≤ 10000 nM
≤ 1000 nM
≤ 100 nM
≤ 1000 nM
≤ 100 nM
≤ 100 nM
≤ 10000 nM

---

molecular target: human GlyT1c transporter (Homo sapiens, UniProt P48067); test: [3H]-(R)-NPTS radioligand binding assay using recombinant hGlyT1 expressing cell membranes; settings: 0.5 nM [3H]-(R)-NPTS, apparent Ki via Cheng-Prusoff, read-out: [3H]-(R)-NPTS bindung Ki
Counter-ions that a name gives are not always drawn.
endpoint_name: Ki

Some compounds with recorded Ki:
C=CCN1CCCC[C@H]1[C@@H](Nc1cc(C)nc2c(OCCN)cccc12)c1ccccc1 = ≤ 10 µM
Cc1cc(N[C@@H](c2ccccc2)[C@@H]2CCCCN2)c2cccc(OCCNS(=O)(=O)c3cccnc3)c2n1 [Example 40, dihydrochloride] = ≤ 0.1 µM
COc1cccc2c(NC(C(N)=O)c3ccccc3)cc(C)nc12 (centres unmarked) = ≤ 10 µM
COc1cccc2c(NCc3ccc(C(F)(F)F)c(Cl)c3)cc(C)nc12 = ≤ 1 µM
C=CCN1CCCC[C@H]1[C@@H](Nc1cc(C)nc2c(OCCNS(C)(=O)=O)cccc12)c1ccccc1 = ≤ 10 µM

Value sought for every listed compound: Ki.
1. Cc1cc(NCc2ccc(Cl)c(Cl)c2)c2cccc(OCCNC(=O)C(C)C)c2n1
2. COc1cccc2c(NC(CN3CCOCC3)c3ccccc3)cc(C)nc12 (centres unmarked)
3. Cc1cc(N[C@@H](c2ccccc2)[C@@H]2CCCCN2)c2ccccc2n1

Result:
≤ 1 µM
≤ 10 µM
≤ 1 µM

---

Hi there, I'd appreciate the recorded Ki for every entry that follows.
Molecular target: human GlyT1c transporter (Homo sapiens, UniProt P48067)
Sequence (P48067 1-706): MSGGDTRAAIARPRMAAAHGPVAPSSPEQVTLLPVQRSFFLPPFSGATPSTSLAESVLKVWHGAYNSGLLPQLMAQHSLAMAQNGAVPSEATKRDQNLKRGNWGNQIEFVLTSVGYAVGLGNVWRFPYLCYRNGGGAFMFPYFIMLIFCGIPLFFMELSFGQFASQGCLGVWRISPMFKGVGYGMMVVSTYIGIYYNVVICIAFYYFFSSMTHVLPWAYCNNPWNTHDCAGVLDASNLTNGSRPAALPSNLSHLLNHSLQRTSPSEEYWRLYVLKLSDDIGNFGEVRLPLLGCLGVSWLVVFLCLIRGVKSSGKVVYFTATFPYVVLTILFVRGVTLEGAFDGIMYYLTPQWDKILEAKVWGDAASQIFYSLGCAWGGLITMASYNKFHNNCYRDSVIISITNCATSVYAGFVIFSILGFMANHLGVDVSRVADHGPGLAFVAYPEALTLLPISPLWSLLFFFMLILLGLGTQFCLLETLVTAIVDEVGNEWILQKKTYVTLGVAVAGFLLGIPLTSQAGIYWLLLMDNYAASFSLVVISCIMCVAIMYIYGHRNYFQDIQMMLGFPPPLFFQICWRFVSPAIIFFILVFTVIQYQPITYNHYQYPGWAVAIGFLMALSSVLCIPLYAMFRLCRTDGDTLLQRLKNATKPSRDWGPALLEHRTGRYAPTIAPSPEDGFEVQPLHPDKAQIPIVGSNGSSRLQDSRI
Experiment: [3H]-(R)-NPTS radioligand binding assay using recombinant hGlyT1 expressing cell membranes
Details: 0.5 nM [3H]-(R)-NPTS, apparent Ki via Cheng-Prusoff, read-out: [3H]-(R)-NPTS bindung Ki
Protocol: 2. [^3H]-(R)-NPTS Radioligand Binding Assays using Recombinant hGlyT1 Expressing Cell Membranes: Radioligand binding to human GlyT1c transporter-expressing membranes was measured in duplicate in a total volume of 200 μl in 96-well plates. […] Non-specific binding was determined in the presence of 10 μM Org24598 (or its racemate Org24461) for [^3H]-(R)-NPTS. […] The radioactivity was determined by liquid scintillation spectrometry in a MicroBeta (PerkinElmer) plate counter. […]
Structures can show the parent of a compound that is named as a salt.

Recorded results for 5 molecules are shown here.
COc1cccc2c(N[C@H](CN(C)C)c3ccc(Cl)cc3)cc(C)nc12 [Example 76] = ≤ 1 nM
Cc1cc(NCc2ccc(Cl)c(Cl)c2)c2cccc(NS(C)(=O)=O)c2n1 [Example 12] = ≤ 1000 nM
CCNc1cccc2c(NCc3ccc(Cl)c(Cl)c3)cc(C)nc12 [Example 9] = ≤ 100 nM
Cc1cc(NCc2ccc(Cl)c(Cl)c2)c2cccc([S+](C)[O-])c2n1 (stereo not drawn) [Example 92] = ≤ 1000 nM
Cc1cc(NCc2ccc(Cl)c(Cl)c2)c2cccc(S(=O)(=O)Nc3ccc(Cl)cc3)c2n1 [Example 4] = ≤ 1000 nM

Report Ki for each item below.
1. Cc1cc(NCc2ccc(Cl)c(Cl)c2)c2cccc(NC(=O)C(C)C)c2n1 [Example 14]
2. Cc1cc(NCc2ccc(Cl)c(Cl)c2)c2cccc(S(C)(=O)=O)c2n1 [Example 93]

Result:
1. ≤ 10000 nM
2. ≤ 1000 nM

Look up Ki for the entries below, preserving their order.
1. COc1cccc2c(N[C@@H](CN(C)C)c3ccc(Cl)cc3)cc(C)nc12 [Example 77]
2. Cc1cc(NCc2ccc(Cl)c(Cl)c2)c2cccc(OCCNC(=O)OC(C)(C)C)c2n1 [Example 19]
3. C=CCN1CCCC[C@H]1[C@@H](Nc1cc(C)nc2c(OC)cccc12)c1ccccc1 [Example 53]
4. Cc1cc(NCc2ccc(Cl)c(Cl)c2)c2cccc(N)c2n1 [Example 5]
5. COc1cccc2c(NCc3ccc(Cl)cc3)cc(C)nc12 [Example 84]
6. Cc1cc(NCc2ccc(Cl)c(Cl)c2)c2cccc(OCCN)c2n1 [Example 20, dihydrochloride]
7. Cc1cc(NCc2ccc(Cl)c(Cl)c2)c2cccc(OCCNS(=O)(=O)Cc3ccccc3)c2n1 [Example 32]
8. Cc1ccc(S(=O)(=O)N2CCN(c3cccc4c(NCc5ccc(Cl)c(Cl)c5)cc(C)nc34)CC2)cc1 [Example 17]

Result:
["≤ 1000 nM", "≤ 100 nM", "≤ 10000 nM", "≤ 100 nM", "≤ 1000 nM", "≤ 10 nM", "≤ 100 nM", "≤ 1000 nM"]

Required: Ki, one value per molecule below.
1. C=CCN1CCCC[C@H]1[C@@H](Nc1cc(C)nc2ccccc12)c1ccccc1 [Example 59]
2. CN(C)c1cc(NCc2ccccc2)c2ccccc2n1 [Example 94]
3. Cc1cc(NCc2ccc(Cl)c(Cl)c2)c2cccc(C)c2n1 [Example 87]

Result:
1. ≤ 10000 nM
2. ≤ 10000 nM
3. ≤ 100 nM
